Quick reference for Fluorescence competitive binding assay, OBP2 (raw fluorescence reading) among some compounds
Study System: SfurOBP2 (Sogatella furcifera, UniProt V5T759)
Sequence (V5T759 entry or part of it): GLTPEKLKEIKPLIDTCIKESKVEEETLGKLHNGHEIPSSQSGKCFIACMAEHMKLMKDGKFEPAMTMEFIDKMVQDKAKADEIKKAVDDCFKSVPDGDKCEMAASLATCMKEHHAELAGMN
Protocol: biochemical
Format: binding
Condition Context: ligand concentration 10 (unit not given), replicate column 2 of 3
Experimental: Thirty-six rice odorants ([He et al., 2014]; [Wang et al., 2017]) and 1-N-phenyl-naphthylamine (1-NPN) were purchased from Sigma-Aldrich (St Louis, MO, USA). […] Fluorescence competitive binding assays were performed on Tecan Spark 10M (Tecan Group Ltd., Männedorf, Switzerland) with the F96 Black ELIAS Plate (Sangon) ([Khuhro et al., 2017]; [Liu et al., 2017]). The solutions were excited at 337 nm and emission spectra were recorded between 390 and 490 nm. […]
Simply state the number, no unit and no words.

## Task Query: Fluorescence competitive binding assay, OBP2 (raw fluorescence reading); subject: C=CC(C)(O)CCC=C(C)CCC=C(C)C (mixture of isomers) [nerolidol]
## Result 13543

## Task Recorded Fluorescence competitive binding assay, OBP2 (raw fluorescence reading) of CCCCCC(C)=O [2-heptanone] , please.
## Result 17236

## Task Please look up its Fluorescence competitive binding assay, OBP2 (raw fluorescence reading): CCCCCCCCCCC [n-hendecane]
## Result 14099

## Task Please give the measured Fluorescence competitive binding assay, OBP2 (raw fluorescence reading) for this compound: CCCCCCCCCCCCC=O [tridecanal]
## Result 16940

## Task Which Fluorescence competitive binding assay, OBP2 (raw fluorescence reading) value belongs to C/C(=C\CO)CCC[C@H](C)CCC[C@H](C)CCCC(C)C [plant alcohol] ?
## Result 19779

## Task # input compound: CCCCCCCCCCCCCCCCCC [n-octadecane] ; wanted: its Fluorescence competitive binding assay, OBP2 (raw fluorescence reading)
## Result 22474

## Task Reported Fluorescence competitive binding assay, OBP2 (raw fluorescence reading), compound C=C/C(C)=C/C/C=C(\C)CCC=C(C)C [α-farnesene] : ____
## Result 18215

## Task Given the entry CC(=O)/C=C/C1=C(C)CCCC1(C)C [β-Ionone] , report its measured Fluorescence competitive binding assay, OBP2 (raw fluorescence reading).
## Result 16412

## Task What measured Fluorescence competitive binding assay, OBP2 (raw fluorescence reading) goes with Cc1ccc(C(C)C)cc1 [4-isopropyltoluene] ?
## Result 17551

## Task Fill in the blank: the reported Fluorescence competitive binding assay, OBP2 (raw fluorescence reading) of O=C(c1ccccc1)c1ccccc1 [benzophenone] is ____.
## Result 14449

## Task Fluorescence competitive binding assay, OBP2 (raw fluorescence reading) for CCCCCCCC [n-octane] ?
## Result 14978

## Task // Fluorescence competitive binding assay, OBP2 (raw fluorescence reading) lookup, key: CCCCCCCCCCCCCC [n-tetradecane]
## Result 20155

## Task # query: Fluorescence competitive binding assay, OBP2 (raw fluorescence reading) of entry CCCCCC=O [caproaldehyde]
## Result 17446

====

Some compounds, each annotated with its measured Fluorescence intensity, fluorescence competitive binding assay, OBP11.
Study System: SfurOBP11 (Sogatella furcifera, UniProt V5T6E3)
Sequence (V5T6E3 entry or part of it): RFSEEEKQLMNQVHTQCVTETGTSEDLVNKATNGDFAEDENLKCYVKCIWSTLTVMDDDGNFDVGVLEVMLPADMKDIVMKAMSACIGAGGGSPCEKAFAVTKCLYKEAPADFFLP
Protocol: biochemical
Format: binding
Condition Context: ligand concentration 6, replicate 2
Respond numerically, and do not add a unit to the figure.

// known answers, use as guide
Compound	Study System	Result
CCCCCCCCC=O [nonanal]	SfurOBP11 (Sogatella furcifera, UniProt V5T6E3)	31560
CCCCCCCCCCCCCCCCCCC [n-nonadecane]	SfurOBP11 (Sogatella furcifera, UniProt V5T6E3)	37869
CC(=O)c1ccccc1 [acetophenone]	SfurOBP11 (Sogatella furcifera, UniProt V5T6E3)	26035
CCCCCCC=CCO [2-nonen-1-ol]	SfurOBP11 (Sogatella furcifera, UniProt V5T6E3)	38169
CCCCCCCCCCCCCCCCCC [n-octadecane]	SfurOBP11 (Sogatella furcifera, UniProt V5T6E3)	32905

## Task Field request: Fluorescence intensity, fluorescence competitive binding assay, OBP11 | item: CCCCCCCCCCCCC=O [tridecanal]
## Result 26335

## Task Item CCCCCCCCCCCCCCCC [n-hexadecane] has what recorded Fluorescence intensity, fluorescence competitive binding assay, OBP11?
## Result 20501

====

Study System: SfurOBP2 (Sogatella furcifera, UniProt V5T759)
Protocol: biochemical
Type: binding
Condition Context: ligand concentration 10 (unit not given), replicate column 2 of 3
Endpoint Label: Fluorescence competitive binding assay, OBP2 (raw fluorescence reading)

Past entries and their recorded results:
Molecule	Result
CCCCCCCCC=O	19572
CCC/C=C/CO [(E)-2-hexenol]	14875

## Task Find the recorded Fluorescence competitive binding assay, OBP2 (raw fluorescence reading) belonging to `COC(=O)c1ccccc1` and report it.
## Result 16967

## Task What value of measured Fluorescence competitive binding assay, OBP2 (raw fluorescence reading) is listed for `Cc1cc(C(C)(C)C)c(O)c(C(C)(C)C)c1` ?
## Result 14630

## Task Entry `C[C@@H]1CC[C@H]2C(C)(C)[C@H]3C[C@@]12CC[C@@]3(C)O` : reported Fluorescence competitive binding assay, OBP2 (raw fluorescence reading) = ?
## Result 25158

## Task # query: Fluorescence competitive binding assay, OBP2 (raw fluorescence reading) of entry `CCCCCCCCCCOCCCCCCCCCC`
## Result 44653

====

Study System: SfurOBP11 (Sogatella furcifera)
Protocol: biochemical
Format: binding
Condition Context: ligand concentration 20, replicate 1
Endpoint Label: Fluorescence intensity, fluorescence competitive binding assay, OBP11
Lab note: jot down the number only; don't add units.

Compound	Result
CCCCCCCCCCC [n-hendecane]	29304
CCCCCCCC [n-octane]	26611
CCCCCCCCCCOCCCCCCCCCC [didecyl ether]	97463

## Task Hi! What's the reported Fluorescence intensity, fluorescence competitive binding assay, OBP11 for CC(C)COC(=O)CCCCC(=O)OCC(C)C [DA(diisobutyl adipate)] on SfurOBP11 (Sogatella furcifera)?
## Result 20792

## Task What is its Fluorescence intensity, fluorescence competitive binding assay, OBP11 for SfurOBP11 (Sogatella furcifera)? Entry: C=C(C)C1CC=C(C)CC1 (single isomer, unassigned; (+)) [(+)-limonene]
## Result 16634

## Task Checklist item: Fluorescence intensity, fluorescence competitive binding assay, OBP11 tested on SfurOBP11 (Sogatella furcifera), entry CCCCCCCCCCCCCC [n-tetradecane] , value?
## Result 33953

## Task Give the reported Fluorescence intensity, fluorescence competitive binding assay, OBP11 for c1ccc2ccccc2c1 [naphthalene] (system: SfurOBP11 (Sogatella furcifera)).
## Result 23792

## Task Query the reported Fluorescence intensity, fluorescence competitive binding assay, OBP11 for SfurOBP11 (Sogatella furcifera); item: CCCCCC(C)=O [2-heptanone]
## Result 20105

## Task Please tell me: Fluorescence intensity, fluorescence competitive binding assay, OBP11 of CCCCCC=O [caproaldehyde] , system SfurOBP11 (Sogatella furcifera)?
## Result 19958

## Task // map Cc1cc(C(C)(C)C)c(O)c(C(C)(C)C)c1 [BHT(2,6-di-tert-butyl-4-methylphenol)] to recorded Fluorescence intensity, fluorescence competitive binding assay, OBP11 (system: SfurOBP11 (Sogatella furcifera))
## Result 15978

====

Fluorescence intensity, fluorescence competitive binding assay, OBP11 values for the compounds below.
Study System: SfurOBP11 (Sogatella furcifera, UniProt V5T6E3)
Protocol: biochemical
Format: binding
Condition Context: ligand concentration 16, replicate 3
Lab note: write the figure by itself, no unit.

Compound	Study System	Result
C=CC(C)(O)CCC=C(C)C (stereo not drawn) [linalool]	SfurOBP11 (Sogatella furcifera, UniProt V5T6E3)	25199
CC/C=C\CCO [(Z)-3-hexenol]	SfurOBP11 (Sogatella furcifera, UniProt V5T6E3)	16778
CCCCCCC=CCO [2-nonen-1-ol]	SfurOBP11 (Sogatella furcifera, UniProt V5T6E3)	25182
Cc1ccc(C(C)C)cc1 [4-isopropyltoluene]	SfurOBP11 (Sogatella furcifera, UniProt V5T6E3)	20238
CC(C)COC(=O)CCCCC(=O)OCC(C)C [DA(diisobutyl adipate)]	SfurOBP11 (Sogatella furcifera, UniProt V5T6E3)	20812

## Task Reported Fluorescence intensity, fluorescence competitive binding assay, OBP11, compound CC1=CC[C@@H](C(C)(C)O)CC1 [α-terpineol] : ____
## Result 18419

## Task For the compound shown here, C=C(C)C1CC=C(C)CC1 (single isomer, unassigned; (+)) [(+)-limonene] , give the reported Fluorescence intensity, fluorescence competitive binding assay, OBP11.
## Result 18385

## Task For CCCCCCCC=O [octanal] , what is its reported Fluorescence intensity, fluorescence competitive binding assay, OBP11?
## Result 22273

## Task Query: Fluorescence intensity, fluorescence competitive binding assay, OBP11; subject: CCCCCCCCCCOCCCCCCCCCC [didecyl ether]
## Result 65982

====

Study System: SfurOBP2 (Sogatella furcifera, UniProt V5T759)
Protocol: biochemical
Assay type: binding
Condition Context: ligand concentration 14 (unit not given), replicate column 1 of 3
Endpoint Label: Fluorescence competitive binding assay, OBP2 (raw fluorescence reading)
Answer using only a numeral; do not append any unit.

Illustrative cases are given below, each with its answer.
Molecule	Result
CCCCCC(C)=O [2-heptanone]	14055
Cc1cc(C(C)(C)C)c(O)c(C(C)(C)C)c1 [BHT(2,6-di-tert-butyl-4-methylphenol)]	12632
CCCCCCCCCCOCCCCCCCCCC [didecyl ether]	47395

Turning now to a further molecule:
## Task What Fluorescence competitive binding assay, OBP2 (raw fluorescence reading) value was documented for this molecule, CCCCCCCCCCCCC=O [tridecanal] ?
## Result 16687
